ASSAY TARGET: UniProtKB Q9Y463
Sequence (Q9Y463 whole entry, looked up): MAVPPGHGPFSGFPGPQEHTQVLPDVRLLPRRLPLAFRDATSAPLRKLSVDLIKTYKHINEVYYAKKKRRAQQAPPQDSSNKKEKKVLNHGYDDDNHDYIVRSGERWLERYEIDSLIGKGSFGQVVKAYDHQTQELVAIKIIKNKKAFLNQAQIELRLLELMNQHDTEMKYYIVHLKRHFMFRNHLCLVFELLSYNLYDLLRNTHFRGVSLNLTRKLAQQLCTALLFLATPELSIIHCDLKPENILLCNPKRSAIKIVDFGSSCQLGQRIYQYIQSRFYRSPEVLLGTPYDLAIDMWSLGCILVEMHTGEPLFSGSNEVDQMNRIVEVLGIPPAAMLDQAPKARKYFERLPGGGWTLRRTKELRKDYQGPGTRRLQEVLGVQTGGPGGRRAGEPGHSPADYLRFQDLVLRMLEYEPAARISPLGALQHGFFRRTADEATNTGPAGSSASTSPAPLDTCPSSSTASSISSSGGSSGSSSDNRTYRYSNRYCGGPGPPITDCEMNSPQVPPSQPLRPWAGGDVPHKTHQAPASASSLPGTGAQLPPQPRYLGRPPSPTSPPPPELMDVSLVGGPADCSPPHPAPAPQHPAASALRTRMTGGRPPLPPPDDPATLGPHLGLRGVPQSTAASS
PROTOCOL TEXT: KINOMEscan competition binding
TEST PARAMETERS: compound 10.0 µM
Note to self: use Criterion met only for kinase still bound, per cent of control readings below 50%; a reading exactly at 50% still gets Criterion not met.

These solved cases illustrate the format of a correct answer.
C=CC(=O)Nc1cccc(Oc2nc(Nc3ccc(N4CCN(C)CC4)cc3OC)ncc2Cl)c1 ... Criterion met
CCCS(=O)(=O)Nc1ccc(F)c(C(=O)c2c[nH]c3ncc(-c4ccc(Cl)cc4)cc23)c1F ... Criterion not met
COc1cc(N2CCN(C)CC2)ccc1Nc1nc(N)c(C(=O)c2c(Cl)cccc2Cl)s1 ... Criterion met

Moving on to the next compound.
(Q) Take the compound CCOc1cc2ncc(C#N)c(Nc3ccc(OCc4ccccn4)c(Cl)c3)c2cc1NC(=O)/C=C/CN(C)C and say whether its kinase still bound, per cent of control is less than 50%.
(A) Criterion not met

###

Each entry below lists one item and its recorded kinase still bound, per cent of control value.
ASSAY TARGET: SRC (human) (UniProt P12931)
Sequence (P12931 whole entry, looked up): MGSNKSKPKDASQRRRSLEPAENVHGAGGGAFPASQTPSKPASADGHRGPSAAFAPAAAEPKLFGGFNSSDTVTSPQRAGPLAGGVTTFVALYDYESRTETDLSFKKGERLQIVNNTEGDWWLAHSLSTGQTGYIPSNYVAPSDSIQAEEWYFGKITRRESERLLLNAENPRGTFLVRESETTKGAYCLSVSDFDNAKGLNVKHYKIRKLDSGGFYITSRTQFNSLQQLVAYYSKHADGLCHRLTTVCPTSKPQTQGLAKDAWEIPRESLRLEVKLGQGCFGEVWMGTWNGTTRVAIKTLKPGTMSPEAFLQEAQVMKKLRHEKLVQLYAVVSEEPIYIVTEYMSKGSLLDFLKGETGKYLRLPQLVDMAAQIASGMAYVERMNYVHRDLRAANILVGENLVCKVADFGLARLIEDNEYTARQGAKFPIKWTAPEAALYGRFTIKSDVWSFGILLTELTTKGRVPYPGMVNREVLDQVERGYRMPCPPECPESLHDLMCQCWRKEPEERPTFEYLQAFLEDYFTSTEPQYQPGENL
PROTOCOL TEXT: KINOMEscan competition binding
TEST PARAMETERS: compound 10.0 µM
Could you give the number and then its unit, please?

COc1cc(C(=O)NC2CCN(C)CC2)ccc1Nc1ncc2c(n1)N(C1CCCC1)CCC(=O)N2C(C)C ... 100%
Nc1ccc(-c2ccc3ncc4ccc(=O)n(-c5cccc(C(F)(F)F)c5)c4c3c2)cn1 ... 100%
Cc1ccc(C(=O)Nc2cccc(C(F)(F)F)c2)cc1Nc1cncc(C(N)=O)c1 ... 100%

The compound identified as Cc1ccc(NC(=O)c2cccc(C(C)(C)C#N)c2)cc1Nc1ccc2ncn(C)c(=O)c2c1 registered its kinase still bound, per cent of control at 0.55%

Reported kinase still bound, per cent of control ( N#Cc1c(NC(=O)c2cccc3ccccc23)sc2c1CCCC2 ) = 81%

Value of kinase still bound, per cent of control reported for the compound Cc1cc([C@@H](C)Nc2ccccc2C(=O)O)c2nc(N3CCOCC3)cc(=O)n2c1 is 100%

Entry Cn1c(=O)n(-c2ccc(C(C)(C)C#N)cc2)c2c3cc(-c4cnc5ccccc5c4)ccc3ncc21 ; kinase still bound, per cent of control = 100%

Short answer for C=CC(=O)Nc1cccc(Nc2nc(N[C@H]3CC[C@H](N(C)C)CC3)nc3c2ncn3C(C)C)c1 : kinase still bound, per cent of control was 4%

Quick note, kinase still bound, per cent of control for CCCS(=O)(=O)Nc1ccc(F)c(C(=O)c2c[nH]c3ncc(-c4ccc(Cl)cc4)cc23)c1F landed at 3.4%

###

ASSAY TARGET: UniProt:Q8WXR4
Sequence (Q8WXR4 whole entry, looked up): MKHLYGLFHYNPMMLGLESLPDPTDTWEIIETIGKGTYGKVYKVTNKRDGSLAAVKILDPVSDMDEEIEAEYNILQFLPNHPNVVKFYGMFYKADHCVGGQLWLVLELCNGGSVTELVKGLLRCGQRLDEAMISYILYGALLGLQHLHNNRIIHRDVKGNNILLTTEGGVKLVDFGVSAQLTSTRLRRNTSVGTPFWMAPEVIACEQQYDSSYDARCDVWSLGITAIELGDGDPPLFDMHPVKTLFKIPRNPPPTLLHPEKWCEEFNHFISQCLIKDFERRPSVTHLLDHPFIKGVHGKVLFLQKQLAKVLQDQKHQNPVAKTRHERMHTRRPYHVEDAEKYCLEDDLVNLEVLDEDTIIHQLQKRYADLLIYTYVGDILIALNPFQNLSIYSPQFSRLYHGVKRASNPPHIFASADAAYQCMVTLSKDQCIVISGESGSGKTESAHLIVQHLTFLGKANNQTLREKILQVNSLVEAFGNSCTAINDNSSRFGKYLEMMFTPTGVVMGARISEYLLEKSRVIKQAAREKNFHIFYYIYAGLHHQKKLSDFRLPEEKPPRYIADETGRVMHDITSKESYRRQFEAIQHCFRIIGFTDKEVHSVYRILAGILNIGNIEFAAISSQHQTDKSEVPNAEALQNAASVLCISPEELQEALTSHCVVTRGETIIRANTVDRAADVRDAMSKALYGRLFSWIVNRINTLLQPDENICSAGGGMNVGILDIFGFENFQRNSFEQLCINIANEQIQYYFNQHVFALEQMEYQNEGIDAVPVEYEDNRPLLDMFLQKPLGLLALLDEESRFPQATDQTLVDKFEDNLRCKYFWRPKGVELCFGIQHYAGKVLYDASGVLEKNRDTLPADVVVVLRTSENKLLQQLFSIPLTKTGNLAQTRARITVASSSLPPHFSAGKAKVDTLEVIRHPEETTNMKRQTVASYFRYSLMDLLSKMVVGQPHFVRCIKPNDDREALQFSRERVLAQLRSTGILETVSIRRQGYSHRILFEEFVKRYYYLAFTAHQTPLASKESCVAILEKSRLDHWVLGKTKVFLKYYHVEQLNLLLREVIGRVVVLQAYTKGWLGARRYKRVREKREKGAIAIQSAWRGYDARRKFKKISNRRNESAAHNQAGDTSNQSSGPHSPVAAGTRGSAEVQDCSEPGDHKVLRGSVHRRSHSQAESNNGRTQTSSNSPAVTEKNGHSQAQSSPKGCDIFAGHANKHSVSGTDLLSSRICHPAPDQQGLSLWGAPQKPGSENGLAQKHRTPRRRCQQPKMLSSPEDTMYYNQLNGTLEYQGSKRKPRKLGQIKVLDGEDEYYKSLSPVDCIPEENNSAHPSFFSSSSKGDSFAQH
PROTOCOL TEXT: KINOMEscan competition binding
TEST PARAMETERS: compound 10.0 µM
READOUT: kinase still bound, per cent of control (%)
Report the value in % with no unit label.

Consider the reported kinase still bound, per cent of control for these compounds:
Cc1ccc(C(=O)Nc2cccc(C(F)(F)F)c2)cc1Nc1cncc(C(N)=O)c1 ... 100
CCN1CCN(Cc2ccc(Nc3ncc4c(n3)N(C)c3ccccc3C(=O)N4C)cc2C(F)(F)F)CC1 ... 100
C=CC(=O)Nc1cccc(Oc2nc(Nc3ccc(N4CCN(C)CC4)cc3OC)ncc2Cl)c1 ... 100
O=C(O)c1ccc(Nc2ncc3c(n2)-c2ccc(Cl)cc2C(c2c(F)cccc2F)=NC3)cc1 ... 100
OCCCNc1cc(-c2ccnc(Nc3cccc(Cl)c3)n2)ccn1 ... 100

Item Cc1ccc2nc(NCCN)c3ncc(C)n3c2c1 ; assay system UniProt:Q8WXR4; kinase still bound, per cent of control reported as 100

Fill in: UniProt:Q8WXR4 kinase still bound, per cent of control for COc1cc(C(=O)NC2CCN(C)CC2)ccc1Nc1ncc2c(n1)N(C1CCCC1)C(C)CC(=O)N2C (configuration not stated) = 100

###

ASSAY TARGET: CSNK2A2 (human)
PROTOCOL TEXT: KINOMEscan competition binding
TEST PARAMETERS: compound 10.0 µM
READOUT: kinase still bound, per cent of control
Mention the unit after the number when you answer.

Just so you know, measured kinase still bound, per cent of control for C[C@@H](Oc1cc(-n2cnc3ccc(CN4CCN(C)CC4)cc32)sc1C(N)=O)c1ccccc1C(F)(F)F came out at 4.6%

# kinase still bound, per cent of control (molecule: Cn1c(=O)n(-c2ccc(C(C)(C)C#N)cc2)c2c3cc(-c4cnc5ccccc5c4)ccc3ncc21 ) is 100%

###

ASSAY TARGET: MARK3 (human) (UniProt P27448)
Sequence (P27448 whole entry, looked up): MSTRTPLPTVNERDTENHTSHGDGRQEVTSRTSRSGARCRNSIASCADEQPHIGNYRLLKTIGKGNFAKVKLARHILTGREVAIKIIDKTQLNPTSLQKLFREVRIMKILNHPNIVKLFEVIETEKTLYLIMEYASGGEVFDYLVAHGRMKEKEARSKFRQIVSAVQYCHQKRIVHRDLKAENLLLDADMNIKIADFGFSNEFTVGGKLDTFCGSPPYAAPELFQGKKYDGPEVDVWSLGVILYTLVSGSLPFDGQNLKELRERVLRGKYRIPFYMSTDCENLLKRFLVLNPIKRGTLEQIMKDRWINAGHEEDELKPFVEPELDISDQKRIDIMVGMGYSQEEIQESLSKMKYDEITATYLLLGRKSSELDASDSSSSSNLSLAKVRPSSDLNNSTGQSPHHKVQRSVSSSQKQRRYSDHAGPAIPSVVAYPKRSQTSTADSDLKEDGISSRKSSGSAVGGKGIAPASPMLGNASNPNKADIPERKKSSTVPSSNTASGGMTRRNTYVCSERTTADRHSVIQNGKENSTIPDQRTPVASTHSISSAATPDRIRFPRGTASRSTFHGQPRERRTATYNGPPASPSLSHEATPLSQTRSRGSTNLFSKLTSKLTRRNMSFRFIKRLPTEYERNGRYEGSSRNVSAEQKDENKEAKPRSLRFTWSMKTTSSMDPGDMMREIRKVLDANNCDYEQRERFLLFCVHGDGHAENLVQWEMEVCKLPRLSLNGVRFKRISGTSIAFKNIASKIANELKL
PROTOCOL TEXT: KINOMEscan competition binding
TEST PARAMETERS: compound 10.0 µM
READOUT: kinase still bound, per cent of control (%)
Reply numerically in %, unit not repeated.

Observe how each entry below is paired with its result.
Cc1cc([C@@H](C)Nc2ccccc2C(=O)O)c2nc(N3CCOCC3)cc(=O)n2c1 ... 89
Cn1c(=O)n(-c2ccc(C(C)(C)C#N)cc2)c2c3cc(-c4cnc5ccccc5c4)ccc3ncc21 ... 100
C[C@@H](Oc1cc(-n2cnc3ccc(CN4CCN(C)CC4)cc32)sc1C(N)=O)c1ccccc1C(F)(F)F ... 63
Nc1ccc(-c2ccc3ncc4ccc(=O)n(-c5cccc(C(F)(F)F)c5)c4c3c2)cn1 ... 100
C=CC(=O)Nc1cccc(Nc2nc(N[C@H]3CC[C@H](N(C)C)CC3)nc3c2ncn3C(C)C)c1 ... 81

For record COc1cc(N2CCN(C)CC2)ccc1Nc1nc(N)c(C(=O)c2c(Cl)cccc2Cl)s1 the listed kinase still bound, per cent of control is 100

Value of measured kinase still bound, per cent of control for the entry O=C(NC1CC1)c1cccc(-c2ccc3c(NC(=O)C4CC4)n[nH]c3c2)c1 : 75

Please fill in: kinase still bound, per cent of control reported for CC[C@@H]1C(=O)N(C)c2cnc(Nc3ccc(C(=O)NC4CCN(C)CC4)cc3OC)nc2N1C1CCCC1 = 100

For reference, reported kinase still bound, per cent of control for CN(C)C/C=C/C(=O)Nc1cccc(Nc2ncc3c(n2)N(C)c2ccccc2C(=O)N3C)c1 stands at 10

###

ASSAY TARGET: UniProt:P10721
Sequence (P10721 whole entry, looked up): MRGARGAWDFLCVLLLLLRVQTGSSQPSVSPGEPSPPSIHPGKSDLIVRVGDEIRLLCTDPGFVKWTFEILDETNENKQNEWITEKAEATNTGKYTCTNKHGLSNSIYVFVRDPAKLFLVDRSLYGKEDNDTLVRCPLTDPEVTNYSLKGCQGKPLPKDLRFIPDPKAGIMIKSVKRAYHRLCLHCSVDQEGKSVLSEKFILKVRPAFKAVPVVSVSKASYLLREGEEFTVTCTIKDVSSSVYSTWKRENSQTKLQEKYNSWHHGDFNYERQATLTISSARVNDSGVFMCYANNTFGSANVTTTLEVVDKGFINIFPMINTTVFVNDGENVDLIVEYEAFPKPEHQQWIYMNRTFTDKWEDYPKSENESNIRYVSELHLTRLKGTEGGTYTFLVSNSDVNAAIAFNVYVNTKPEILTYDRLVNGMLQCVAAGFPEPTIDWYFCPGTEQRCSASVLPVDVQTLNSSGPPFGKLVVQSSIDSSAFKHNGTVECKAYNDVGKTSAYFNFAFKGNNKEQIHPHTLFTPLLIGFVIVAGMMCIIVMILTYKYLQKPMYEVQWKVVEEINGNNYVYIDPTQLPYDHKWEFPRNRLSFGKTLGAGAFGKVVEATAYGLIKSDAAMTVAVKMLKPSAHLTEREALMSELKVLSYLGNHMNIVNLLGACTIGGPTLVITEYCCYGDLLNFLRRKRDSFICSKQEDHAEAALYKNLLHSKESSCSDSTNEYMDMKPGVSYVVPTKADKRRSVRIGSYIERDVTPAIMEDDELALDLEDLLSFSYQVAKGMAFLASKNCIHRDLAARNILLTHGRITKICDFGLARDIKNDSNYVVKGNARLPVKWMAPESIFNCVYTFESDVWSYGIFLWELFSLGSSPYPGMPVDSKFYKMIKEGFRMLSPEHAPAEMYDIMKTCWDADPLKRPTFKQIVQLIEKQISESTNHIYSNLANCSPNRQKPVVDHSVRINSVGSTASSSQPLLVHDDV
PROTOCOL TEXT: KINOMEscan competition binding
TEST PARAMETERS: compound 10.0 µM
READOUT: kinase still bound, per cent of control (%)
Reply numerically in %, unit not repeated.

Some solved entries appear below for comparison.
O=C1Nc2ccc(I)cc2/C1=C/c1cc(Br)c(O)c(Br)c1 ... 3.4
C=CC(=O)Nc1cc(NC(=O)c2ccc(C)c(NC(=O)c3ccno3)c2)cc(C(F)(F)F)c1 ... 4.7
Cc1ccc(C(=O)Nc2cccc(C(F)(F)F)c2)cc1Nc1cncc(C(N)=O)c1 ... 0

Then this compound:
Record summary for CCOc1cc2ncc(C#N)c(Nc3ccc(OCc4ccccn4)c(Cl)c3)c2cc1NC(=O)/C=C/CN(C)C : reported kinase still bound, per cent of control = 80

###

ASSAY TARGET: UniProt P16591
Sequence (P16591 whole entry, looked up): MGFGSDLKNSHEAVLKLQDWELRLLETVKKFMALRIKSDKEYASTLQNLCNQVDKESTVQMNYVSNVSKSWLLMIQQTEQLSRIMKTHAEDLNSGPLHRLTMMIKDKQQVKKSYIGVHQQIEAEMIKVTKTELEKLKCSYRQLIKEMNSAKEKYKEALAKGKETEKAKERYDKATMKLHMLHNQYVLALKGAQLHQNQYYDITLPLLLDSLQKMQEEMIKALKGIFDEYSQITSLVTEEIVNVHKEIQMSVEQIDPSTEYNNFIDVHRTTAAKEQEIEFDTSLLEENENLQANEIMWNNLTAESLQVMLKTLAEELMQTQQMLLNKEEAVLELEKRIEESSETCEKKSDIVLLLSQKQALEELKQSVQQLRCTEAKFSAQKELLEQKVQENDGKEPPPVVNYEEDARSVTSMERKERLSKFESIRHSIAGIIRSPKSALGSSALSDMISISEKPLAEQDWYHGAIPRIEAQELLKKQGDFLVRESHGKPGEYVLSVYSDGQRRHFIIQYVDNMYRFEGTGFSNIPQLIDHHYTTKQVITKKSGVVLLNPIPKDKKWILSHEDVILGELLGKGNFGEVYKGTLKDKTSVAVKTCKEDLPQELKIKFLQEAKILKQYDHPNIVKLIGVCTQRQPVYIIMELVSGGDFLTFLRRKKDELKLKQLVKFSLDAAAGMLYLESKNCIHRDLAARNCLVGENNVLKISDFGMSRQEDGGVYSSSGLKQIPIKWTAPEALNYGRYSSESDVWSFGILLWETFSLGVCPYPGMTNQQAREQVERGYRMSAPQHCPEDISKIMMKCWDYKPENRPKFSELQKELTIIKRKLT
PROTOCOL TEXT: KINOMEscan competition binding
TEST PARAMETERS: compound 10.0 µM
Could you please mark true (1) for values of kinase still bound, per cent of control below 80% and false (0) for values at or above it?

Example cases with answers are listed next.
CCOc1cc2ncc(C#N)c(Nc3ccc(OCc4ccccn4)c(Cl)c3)c2cc1NC(=O)/C=C/CN(C)C ... true (1)
CN(C)C/C=C/C(=O)Nc1cccc(Nc2ncc3c(n2)N(C)c2ccccc2C(=O)N3C)c1 ... false (0)
O=C1Nc2ccc(I)cc2/C1=C/c1cc(Br)c(O)c(Br)c1 ... false (0)
C[C@@H](Oc1cc(-n2cnc3ccc(CN4CCN(C)CC4)cc32)sc1C(N)=O)c1ccccc1C(F)(F)F ... false (0)
COc1cc(C(=O)NC2CCN(C)CC2)ccc1Nc1ncc2c(n1)N(C1CCCC1)C(C)CC(=O)N2C (stereo not given) ... true (1)
C=CC(=O)Nc1cc(NC(=O)c2ccc(C)c(NC(=O)c3ccno3)c2)cc(C(F)(F)F)c1 ... false (0)
O=C(NOC[C@H](O)CO)c1ccc(F)c(F)c1Nc1ccc(I)cc1F ... false (0)
N#Cc1c(NC(=O)c2cccc3ccccc23)sc2c1CCCC2 ... false (0)
O=C(O)c1ccc(Nc2ncc3c(n2)-c2ccc(Cl)cc2C(c2c(F)cccc2F)=NC3)cc1 ... true (1)
COc1cc(C(=O)NC2CCN(C)CC2)ccc1Nc1ncc2c(n1)N(C1CCCC1)CCC(=O)N2C(C)C ... false (0)

(Q) I wonder whether CCCS(=O)(=O)Nc1ccc(F)c(C(=O)c2c[nH]c3ncc(-c4ccc(Cl)cc4)cc23)c1F has kinase still bound, per cent of control below 80%. Can you tell?
(A) true (1)

(Q) Does the reported kinase still bound, per cent of control of Nc1ccc(-c2ccc3ncc4ccc(=O)n(-c5cccc(C(F)(F)F)c5)c4c3c2)cn1 stay below 80%?
(A) false (0)

(Q) Is 80% strictly greater than the molecule's reported kinase still bound, per cent of control? molecule: Cc1ccc(C(=O)Nc2cccc(C(F)(F)F)c2)cc1Nc1cncc(C(N)=O)c1
(A) false (0)
